B1: MIA2 (parent)
chain: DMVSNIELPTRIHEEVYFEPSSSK

- Variants of: B1
- protocol: protein stability index of a GFP-peptide fusion (GPS, HEK-293T) (PSI 1-6); higher = more stable;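 also: lentivirally expressed fusions sorted by FACS into six bins by GFP to DsRed ratio, PSI derived from sequencing read proportions per bin multiplied by bin number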
- experimental parameters: c terminus: a fixed tail appended
endpoint: protein stability index
Could you keep your reply to the number by itself?

// query protein stability index value for entry `DMVSNIELPTRLHEEVYFEPSSSK`
3.89

// query protein stability index value for entry `DMLSNIELPTRIHEEVYFEPSSSK`
3.53

// query protein stability index value for entry `DMVSNILLPTRIHEEVYFEPSSSK`
3.16

// query protein stability index value for entry `DMVSNIELPTRIHEHVYFEPSSSK`
3.63

// query protein stability index value for entry `DMVSNIELPTRIHEEPYFEPSSSK`
4.12

// query protein stability index value for entry `DMVSNIELPTGIHEEVYFEPSSSK`
4.86

// query protein stability index value for entry `DMVSNIELPTRIHEEVYFEPSTSK`
4.03

// query protein stability index value for entry `SMVSNIELPTRIHEEVYFEPSSSK`
3.5

// query protein stability index value for entry `DMVSNIEHPTRIHEEVYFEPSSSK`
4.56

// query protein stability index value for entry `DMVSNIELPTRIHEEVYFEPSSEK`
5.16

// query protein stability index value for entry `DMVSNIELPTRIHEEVYFEPISSK`
4
